Test system: HS 578T breast
Test: NCI-60 one-dose screen, 48 h
Conditions: 10 µM unless noted
About 83,000 compounds went through this panel and 20% of them were active in at least one assay; those are over-represented in the sample as a whole. Active and inactive are the calls of the source. How the source made its calls: active means growth percent below 10; inactive means the rest.
Possible outcomes: 1 (yes) for active, 0 (no) for inactive

- compound: "COc1cc(/C=C/c2cc(/C=C/c3ccc(O)c(OC)c3)n(C(=O)c3ccc(Cl)cc3)n2)ccc1O"
  qualitativeLabel: "0 (no)"
- compound: "COc1cc2c(cc1OC)C(=O)/C(=C/c1cccc(OCC(=O)c3ccccc3)c1)C2"
  qualitativeLabel: "0 (no)"
- compound: "CCCCCCCCCCCCC1CCCC(C)C1 (stereo not given)"
  qualitativeLabel: "0 (no)"
- compound: "COc1ccc(C(=O)COc2cccc(/C=C3\\CSc4ccc(Cl)cc4C3=O)c2)cc1"
  qualitativeLabel: "0 (no)"
- compound: "COc1cc(/C=N/OC(=O)Nc2ccccc2)cc(OC)c1OC"
  qualitativeLabel: "0 (no)"
- compound: "CCn1cnc(C[C@H](NC(=O)[C@H](CCCCNC(=O)Nc2cc(C(F)(F)F)cc(C(F)(F)F)c2)NC(=O)Nc2cc(C(F)(F)F)cc(C(F)(F)F)c2)C(=O)OC)c1"
  qualitativeLabel: "1 (yes)"
- compound: "COc1cc(NC(=O)NCc2ccco2)ccc1-c1ccc(NC(=O)NCc2ccco2)cc1OC"
  qualitativeLabel: "0 (no)"
- compound: "COc1ccc(NC(=O)c2ccc(-c3ccccc3)cc2)c(C(N)=O)c1"
  qualitativeLabel: "0 (no)"
- compound: "[N-]=[N+]=NCc1ncc(-c2ccc(C(F)(F)F)cc2)c(NC2CCCCCC2)n1"
  qualitativeLabel: "0 (no)"
- compound: "COc1ccc(Cl)cc1Nc1nc(C(F)(F)F)ccc1C(=O)N/N=C/c1c(Cl)cccc1Cl"
  qualitativeLabel: "0 (no)"
- compound: "Nc1c(C(=O)Nc2cccc(Cl)c2)sc2nc3c(cc12)C(O)CCC3 (stereo not given)"
  qualitativeLabel: "0 (no)"
- compound: "Oc1c(N=Nc2nn[nH]n2)ccc2ccccc12"
  qualitativeLabel: "0 (no)"
- compound: "CC(=O)Nc1ccc(C(=O)COc2ccc(/C=C3\\CCc4ccccc4C3=O)cc2)cc1"
  qualitativeLabel: "0 (no)"
- compound: "COc1ccc2nc(NC(=O)CN3CCn4c(nnc4C(F)(F)F)C3)sc2c1"
  qualitativeLabel: "0 (no)"
- compound: "CC(=O)OCC(=O)[C@@]1(O)CC[C@H]2[C@@H]3CCC4=CC(=O)CC[C@]4(C)[C@@]3(F)[C@@H](O)C[C@@]21C"
  qualitativeLabel: "0 (no)"
- compound: "CCOC(=O)C(C(=O)OCC)C1CCCCC1"
  qualitativeLabel: "0 (no)"
- compound: "O=Cc1ncc(-c2ccc(C(F)(F)F)cc2)c(NC2CCCCCC2)n1"
  qualitativeLabel: "1 (yes)"
- compound: "N#Cc1ccc(-c2csc(Nc3ccc4nc5n(c(=O)c4c3)CCC5)n2)cc1"
  qualitativeLabel: "0 (no)"
- compound: "CCOC(=O)Nc1cc(-c2ccc(C)c(NS(C)(=O)=O)c2)nn2c(C)nnc12"
  qualitativeLabel: "1 (yes)"
- compound: "CC(=O)N1N=C(c2ccc(C(F)(F)F)cc2)CC1c1ccc2c(c1)OCO2 (stereo not given)"
  qualitativeLabel: "0 (no)"
